Examples of compounds with documented pEC50 follow.
Molecular target: human FXR (Homo sapiens)
Test: FXR reporter assay (cellular FXR activities)
Settings: FXR reporter cells, 24 hours incubation, luciferase; read-out: Reporter Cell EC50
pEC50: −log10 of the molar value.
measurement-name: pEC50

CN(C(=O)OC(C)(C)C)c1cc(C#Cc2ccc(OCc3c(-c4c(Cl)cccc4Cl)noc3C3CC3)cc2Cl)cc(C(=O)O)c1 [Compound I-78] :: 7.22 to 7.70
COc1c(N)cc(C(=O)O)cc1C#Cc1ccc(OCc2c(-c3c(Cl)cccc3Cl)noc2C2CC2)cc1Cl [Compound I-61] :: 6.70 to 7.22
CC(C)(O)Cn1ccc2c(C#Cc3ccc(OCc4c(-c5c(Cl)cccc5Cl)noc4C4CC4)cc3Cl)cc(C(=O)O)cc21 [Compound I-98] :: 7.22 to 7.70
O=C(O)c1cccc(C#Cc2c(Cl)cc(OCc3c(-c4c(Cl)cccc4Cl)noc3C3CC3)cc2Cl)c1 [Compound I-34] :: 6.70 to 7.22
O=C(O)c1ccc(Cl)c(C#Cc2ccc(OCc3c(-c4c(Cl)cccc4Cl)noc3C3CC3)cc2Cl)c1 [Compound I-28] :: 6.70 to 7.22
O=C(O)c1cc(C#Cc2ccc(OCc3c(-c4c(Cl)cccc4Cl)noc3C3CC3)cc2Cl)cc2ncoc12 [Compound I-102] :: 6.00 to 6.70
Cc1nc2cc(C#Cc3ccc(OCc4c(-c5c(Cl)cccc5Cl)noc4C4CC4)cc3Cl)cc(C(=O)O)c2o1 [Compound I-103] :: ≥ 7.70
Cc1c(N)cc(C#Cc2ccc(OCc3c(-c4c(Cl)cccc4Cl)noc3C3CC3)cc2Cl)cc1C(=O)O [Compound I-71] :: 6.00 to 6.70
COc1cc(C#Cc2ccc(OCc3c(-c4c(Cl)cccc4Cl)noc3C3CC3)cc2Cl)cc(C(=O)O)c1 [Compound I-40] :: 7.22 to 7.70
O=C(O)c1ccnc(C#Cc2ccc(OCc3c(-c4c(Cl)cccc4Cl)noc3C3CC3)cc2Cl)c1 [Compound I-18] :: 6.00 to 6.70
O=C(O)c1cccc(C#Cc2ccc(OCc3c(-c4c(Cl)cccc4Cl)noc3C3CC3)cc2)c1 [Compound I-2] :: < 6.00
Nc1cc(C#Cc2ccc(OCc3c(-c4c(Cl)cccc4Cl)noc3C3CC3)cc2Cl)cc(C(=O)O)c1 [Compound I-25] :: 6.70 to 7.22
CCc1nc2c(C(=O)O)cc(C#Cc3ccc(OCc4c(-c5c(Cl)cccc5Cl)noc4C4CC4)cc3Cl)cc2o1 [Compound I-113] :: 7.22 to 7.70
CC(C)c1nc2c(C(=O)O)cc(C#Cc3ccc(OCc4c(-c5c(Cl)cccc5Cl)noc4C4CC4)cc3Cl)cc2o1 [Compound I-115] :: 7.22 to 7.70
O=C(O)c1cc(C#Cc2ccc(OCc3c(-c4c(Cl)cccc4Cl)noc3C3CC3)cc2Cl)c2ccn(Cc3ccncc3)c2c1 [Compound I-94] :: 6.70 to 7.22
CC(C)Nc1cc(C#Cc2ccc(OCc3c(-c4c(Cl)cccc4Cl)noc3C3CC3)cc2Cl)cc(C(=O)O)c1 [Compound I-54] :: ≥ 7.70
CCc1nc2cc(C#Cc3ccc(OCc4c(-c5c(Cl)cccc5Cl)noc4C4CC4)cc3Cl)cc(C(=O)O)c2o1 [Compound I-104] :: ≥ 7.70
Cc1cc(C#Cc2ccc(OCc3c(-c4c(Cl)cccc4Cl)noc3C3CC3)cc2Cl)cc(C(=O)O)c1 [Compound I-63] :: 6.70 to 7.22
O=C(O)c1cc(C#Cc2ccc(OCc3c(-c4c(Cl)cccc4Cl)noc3C3CC3)cc2Cl)cc2[nH]ncc12 [Compound I-99] :: 6.70 to 7.22
O=C(O)c1cccc(C#Cc2ccc(OCc3c(-c4c(Cl)cccc4Cl)noc3C3CC3)cc2Cl)c1 [Compound I-15] :: 6.70 to 7.22
O=C(O)c1cncc(C#Cc2ccc(OCc3c(-c4c(Cl)cccc4Cl)noc3C3CC3)cc2Cl)c1 [Compound I-20] :: 6.70 to 7.22

###

Examples of compounds with documented pEC50 follow.
Target: human FXR (Homo sapiens, UniProt Q96RI1)
Sequence (Q96RI1 whole entry): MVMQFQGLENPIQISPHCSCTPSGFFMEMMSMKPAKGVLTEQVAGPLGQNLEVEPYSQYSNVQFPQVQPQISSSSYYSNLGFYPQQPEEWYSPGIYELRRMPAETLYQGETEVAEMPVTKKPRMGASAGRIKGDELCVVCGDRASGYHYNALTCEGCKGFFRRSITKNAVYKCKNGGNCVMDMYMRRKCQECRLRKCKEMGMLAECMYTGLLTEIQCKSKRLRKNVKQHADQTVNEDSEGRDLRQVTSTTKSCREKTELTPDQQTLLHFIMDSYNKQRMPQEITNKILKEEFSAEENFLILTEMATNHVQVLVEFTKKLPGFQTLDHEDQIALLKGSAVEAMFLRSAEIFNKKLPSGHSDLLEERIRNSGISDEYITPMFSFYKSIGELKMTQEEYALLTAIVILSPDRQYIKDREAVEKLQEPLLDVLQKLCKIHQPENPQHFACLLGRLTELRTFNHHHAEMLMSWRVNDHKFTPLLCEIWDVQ
Assay: FXR reporter assay (cellular FXR activities)
Conditions: FXR reporter cells, 24 hours incubation, luciferase; read-out: Reporter Cell EC50
pEC50: −log10 of the molar value.
measurement-name: pEC50

CCOC(=O)Nc1cc(C#Cc2ccc(OCc3c(-c4c(Cl)cccc4Cl)noc3C3CC3)cc2Cl)cc(C(=O)O)c1 [Compound I-74] :: ≥ 7.70
CN(C)c1cc(C(=O)O)ccc1C#Cc1ccc(OCc2c(-c3c(Cl)cccc3Cl)noc2C2CC2)cc1Cl [Compound I-22] :: 6.70 to 7.22
COc1c(N)cc(C#Cc2ccc(OCc3c(-c4c(Cl)cccc4Cl)noc3C3CC3)cc2Cl)cc1C(=O)O [Compound I-62] :: 6.70 to 7.22
COC(=O)c1cccc(C#Cc2ccc(OCc3c(-c4c(Cl)cccc4Cl)noc3C3CC3)cc2Cl)c1 [Compound I-7] :: < 6.00
O=C(O)c1cc(C#Cc2ccc(OCc3c(-c4c(Cl)cccc4Cl)noc3C3CC3)cc2Cl)cc2[nH]ccc12 [Compound I-101] :: ≥ 7.70
CCc1cc(C#Cc2ccc(OCc3c(-c4c(Cl)cccc4Cl)noc3C3CC3)cc2Cl)cc(C(=O)O)c1 [Compound I-65] :: 6.70 to 7.22
N#Cc1cc(C#Cc2ccc(OCc3c(-c4c(Cl)cccc4Cl)noc3C3CC3)cc2Cl)cc(C(=O)O)c1 [Compound I-33] :: 6.70 to 7.22

###

Biological target: human FXR (Homo sapiens)
Assay: FXR reporter assay (cellular FXR activities)
Conditions: FXR reporter cells, 24 hours incubation, luciferase; read-out: Reporter Cell EC50
Examples of compounds with documented EC50 follow.
measurement-name: EC50

O=C(O)c1cccc(C#Cc2cc(Cl)c(OCc3c(-c4c(Cl)cccc4Cl)noc3C3CC3)cc2Cl)c1 :: > 1000 nM
O=C(O)c1ccc(C#Cc2ccc(OCc3c(-c4c(Cl)cccc4Cl)noc3C3CC3)cc2)cc1 :: > 1000 nM
O=C(O)c1cc(C#Cc2ccc(OCc3c(-c4c(Cl)cccc4Cl)noc3C3CC3)cc2Cl)cc2c1OCC2 :: 60 to 200 nM
O=C(O)c1ccc(C#Cc2ccc(OCc3c(-c4c(Cl)cccc4Cl)noc3C3CC3)cc2C(F)(F)F)cc1 :: 60 to 200 nM
O=C(O)c1ccc(C#Cc2ccc(OCc3c(-c4c(Cl)cccc4Cl)noc3C3CC3)cc2Cl)nc1 :: 200 to 1000 nM
O=C(Nc1cc(C#Cc2ccc(OCc3c(-c4c(Cl)cccc4Cl)noc3C3CC3)cc2Cl)cc(C(=O)O)c1)OC1CC1 :: ≤ 20 nM
O=C(O)c1cccc(C#Cc2ccc(OCc3c(-c4ccccc4OC(F)(F)F)noc3C3CC3)cc2Cl)c1 :: 200 to 1000 nM
O=C(O)c1cc(I)cc(C#Cc2ccc(OCc3c(-c4c(Cl)cccc4Cl)noc3C3CC3)cc2Cl)c1 :: 20 to 60 nM
COC(Cn1ccc2c(C#Cc3ccc(OCc4c(-c5c(Cl)cccc5Cl)noc4C4CC4)cc3Cl)cc(C(=O)O)cc21)OC :: ≤ 20 nM
